systemUnderTest: PDE1A (Homo sapiens)
Construct: purchased Reaction Biology Corporation, Malvern, Pa
Sequence (P54750 whole entry): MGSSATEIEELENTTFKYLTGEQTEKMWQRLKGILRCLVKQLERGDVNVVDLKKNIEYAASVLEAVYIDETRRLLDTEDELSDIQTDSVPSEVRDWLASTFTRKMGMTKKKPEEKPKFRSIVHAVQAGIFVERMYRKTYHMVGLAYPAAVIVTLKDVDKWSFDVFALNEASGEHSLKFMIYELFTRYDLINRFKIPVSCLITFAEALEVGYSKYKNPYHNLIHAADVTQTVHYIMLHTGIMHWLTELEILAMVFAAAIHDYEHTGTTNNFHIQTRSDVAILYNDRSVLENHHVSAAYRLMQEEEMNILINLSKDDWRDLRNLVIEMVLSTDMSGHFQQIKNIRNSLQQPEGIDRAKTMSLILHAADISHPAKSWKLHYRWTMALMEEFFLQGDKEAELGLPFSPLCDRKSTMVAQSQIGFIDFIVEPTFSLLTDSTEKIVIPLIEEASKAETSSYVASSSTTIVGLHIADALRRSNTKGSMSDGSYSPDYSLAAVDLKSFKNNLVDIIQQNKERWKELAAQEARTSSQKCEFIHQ
assayText: Phosphodiesterase enzyme screening assay, PDE1A
Assay type: biochemical
details: Table 1; ratio of IC50 values; value greater than 1 indicates greater selectivity for PDE9A2
Decision: PDE1A selectivity (versus PDE9A2) beneath 200 gives Criterion met; PDE1A selectivity (versus PDE9A2) meeting or exceeding 200 gives Criterion not met.

INSERT INTO measurements (compound, classname) VALUES
  ('CC1CN(Cc2ccc(C3CC3)cc2)CC1c1nn2c(C3CCOCC3)ncc2c(=O)[nH]1 (single isomer, unassigned; (+))', 'Criterion not met'),
  ('CC1CN(Cc2ccc(C(F)(F)F)nc2)CC1c1nn2c(C3CCOCC3)ncc2c(=O)[nH]1 (single isomer, unassigned; (+))', 'Criterion not met'),
  ('CC1CN(Cc2nc3ccccc3n2C)CC1c1nn2c(C3CCOCC3)ncc2c(=O)[nH]1 (single isomer, unassigned; (+))', 'Criterion met'),
  ('CC1CN(Cc2ccccc2)CC1c1nn2c(C3CCOCC3)ncc2c(=O)[nH]1 (single isomer, unassigned; (-)) [(−)-2-((3,4-trans)-1-benzyl-4-methylpyrrolidin-3-yl)-7-(tetr]', 'Criterion not met'),
  ('CC1CN(Cc2ccnc3ccccc23)CC1c1nn2c(C3CCOCC3)ncc2c(=O)[nH]1 (single isomer, unassigned; (+))', 'Criterion not met');

Please indicate whether the reported PDE1A selectivity (versus PDE9A2) of CC1CN(Cc2ccnnc2)CC1c1nn2c(C3CCOCC3)ncc2c(=O)[nH]1 (single isomer, unassigned; (+)) is strictly below 200.
Criterion met

###

systemUnderTest: PDE9A2 (Homo sapiens, UniProt O76083)
Construct: purchased Reaction Biology Corporation, Malvern, Pa
Sequence (O76083 1-533 isoform O76083-2): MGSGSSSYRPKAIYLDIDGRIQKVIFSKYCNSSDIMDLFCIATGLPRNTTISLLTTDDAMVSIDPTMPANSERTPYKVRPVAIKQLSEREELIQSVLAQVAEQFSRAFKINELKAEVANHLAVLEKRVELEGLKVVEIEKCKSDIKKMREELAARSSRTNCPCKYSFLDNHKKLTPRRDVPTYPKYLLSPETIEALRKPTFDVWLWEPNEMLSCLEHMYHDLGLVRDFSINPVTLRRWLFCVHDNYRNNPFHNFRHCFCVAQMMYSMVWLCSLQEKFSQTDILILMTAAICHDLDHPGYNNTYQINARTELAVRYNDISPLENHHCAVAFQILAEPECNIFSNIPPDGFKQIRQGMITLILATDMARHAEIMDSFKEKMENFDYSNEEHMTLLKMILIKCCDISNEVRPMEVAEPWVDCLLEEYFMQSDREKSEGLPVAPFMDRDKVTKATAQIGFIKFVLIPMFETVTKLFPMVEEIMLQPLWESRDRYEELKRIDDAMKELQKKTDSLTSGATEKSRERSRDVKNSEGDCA
assayText: Phosphodiesterase enzyme screening assay, PDE9A2
Format: biochemical
details: Table 1; 10 concentrations; 4.0 μM cGMP substrate; 1 hour at R.T.; read-out: Band (PDE9A2 IC50)
measurementName: IC50

INSERT INTO results (compound, measurementname, result) VALUES
  ('Cc1ccc(F)cc1-c1ncc2c(=O)[nH]c(C3CN(Cc4ncccn4)CC3C)nn12 (single isomer, unassigned; (-))', 'IC50', '1000 to 10000 nM'),
  ('CC1CN(C(=O)c2ccccc2)CC1c1nn2c(C3CCOCC3)ncc2c(=O)[nH]1 (single isomer, unassigned; (-))', 'IC50', '< 1000 nM'),
  ('CC1CN(Cc2ccc(Cl)c(Cl)c2)CC1c1nn2c(C3CCOCC3)ncc2c(=O)[nH]1 (single isomer, unassigned; (+))', 'IC50', '< 1000 nM'),
  ('CC1CN(Cc2ccc(Cl)cc2Cl)CC1c1nn2c(C3CCOCC3)ncc2c(=O)[nH]1 (single isomer, unassigned; (+))', 'IC50', '< 1000 nM'),
  ('CC1CN(Cc2ccc3ncncc3c2)CC1c1nn2c(C3CCOCC3)ncc2c(=O)[nH]1 (single isomer, unassigned; (+))', 'IC50', '< 1000 nM'),
  ('CC1CN(S(=O)(=O)c2ccc(F)cc2)CC1c1nn2c(C3CCOCC3)ncc2c(=O)[nH]1 (single isomer, unassigned; (-))', 'IC50', '1000 to 10000 nM'),
  ('CC1CN(Cc2cn3ncccc3n2)CC1c1nn2c(C3CCOCC3)ncc2c(=O)[nH]1 (single isomer, unassigned; (-))', 'IC50', '< 1000 nM'),
  ('CC1CN(Cc2nc3ccccc3[nH]2)CC1c1nn2c(C3CCOCC3)ncc2c(=O)[nH]1 (single isomer, unassigned; (-))', 'IC50', '< 1000 nM');

Requested read-out: IC50. Entry: CC1CN(Cc2cnc3ccccc3n2)CC1c1nn2c(C3CCOCC3)ncc2c(=O)[nH]1 (single isomer, unassigned; (+))
< 1000 nM

Requested read-out: IC50. Entry: CC1CN(Cc2ccncn2)CC1c1nn2c(C3CCOCC3)ncc2c(=O)[nH]1 (single isomer, unassigned; (+))
< 1000 nM

Requested read-out: IC50. Entry: CC1CN(Cc2ccc(F)cc2)CC1c1nn2c(C3CCOCC3)ncc2c(=O)[nH]1 (single isomer, unassigned; (+))
< 1000 nM

Requested read-out: IC50. Entry: CC1CN(Cc2cccc(N3CCCC3)c2)CC1c1nn2c(C3CCOCC3)ncc2c(=O)[nH]1 (single isomer, unassigned; (+))
< 1000 nM
